TEST_TARGET: T1, UNK ZnF1-3 (human, UniProt Q9C0B0 31-174)
T1 sequence: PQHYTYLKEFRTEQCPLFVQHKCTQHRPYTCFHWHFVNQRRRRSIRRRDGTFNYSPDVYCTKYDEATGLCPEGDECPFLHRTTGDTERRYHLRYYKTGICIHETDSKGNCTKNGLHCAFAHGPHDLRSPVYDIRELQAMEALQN
PROCEDURE_TEXT: nsRBNS (natural sequence RNA bind-n-seq); RBNS binding buffer (assumed for nsRBNS): 25 mM Tris pH 7.5, 150 mM KCl, 3 mM MgCl2, 0.01% Triton X-100, 500 ug/ml BSA, 20 U/ml SUPERase-In, 4 C; UNK is unkempt and MSI1 is Musashi-1; names of the RNAs are library labels; protein concentration not given here; high values mean tight binding
The full ranking holds about 24,000 sequences; the median of “enrichment r” is about 0.99, and the highest 2% start at about 3.7. This excerpt belongs to a sample that is enriched for the highest values.
OBSERVATION_TYPE: binding signal (enrichment R)

[[record]]
binder = "chr9:74904954:74904955:+_ENSMUSG00000007656_ENSMUST00000169492|mus_hu|FALSE|FALSE (ssRNA) RNA: GGGAGUUCUACAGUCCGACGAUCCCAAAAGGUAAAUACAGAAGAAAUCAAUACAAUAGAGAUUAUAUUAAAUAAGAGUAACAUACAAAGCUAUAAUUAAGAUGAAGUAAUGAAAGCCAAAACAUUAAAAUUUUAAAACUUGCUCAACAGAGGAUUGAGCAUCA"
observation_type = "binding signal"
number = 3.69

[[record]]
binder = "chr17:61655871:61655872:+_ENSG00000136485_ENST00000310827|hu_hu|FALSE|FALSE (ssRNA) RNA: GGGAGUUCUACAGUCCGACGAUCGGUGGGGUAUGGGUGGUCAAAGGUGUUUCUGCAAAUAAACUCUGAACUCUCCUCAUCUAAACCAACAAGCUGAACCUUGUUGUUGUACUCCUCCACGAAGCUGCCCAGCGCCAAGCGAAACAACAGAGGAUUGAGCAUCA"
observation_type = "binding signal"
number = 1.21

[[record]]
binder = "chr7:127875444:127875445:+_ENSMUSG00000046096_ENSMUST00000060175|mus_hu|FALSE|FALSE (ssRNA) RNA: GGGAGUUCUACAGUCCGACGAUCAAAGGCAUAUAACAUAUAAAGAAAAUAUUGUAUUGCUCAGGUUUUGGUAAAGAUGUAUUAAUAAUGCUUACAGAUAAAAAUAAUGAAAUUAGUGUUGUAAAUAGCCAAAAUAGCCAGAUACAACAGAGGAUUGAGCAUCA"
observation_type = "binding signal"
number = 5.6

[[record]]
binder = "chr1:220276048:220276049:+_ENSG00000067704_ENST00000302637|hu_hu|hu_hu_hu_mus_True|18_78 (ssRNA) RNA: GGGAGUUCUACAGUCCGACGAUCGCAAAUUGCCUGGUUGGCGGGAAUUGUCCAAGGUUGUGUGGUCCAAACUAAAACGCUAACAGGGGAUGAGGCAUCUGUAAGAGACUCCAACUUUGGAGAAGGCCUCAGGAGGGGGAAUCUCAACAGAGGAUUGAGCAUCA"
observation_type = "binding signal"
number = 2.05

[[record]]
binder = "chr17:88387627:88387628:+_ENSMUSG00000005370_ENSMUST00000005503|mus_hu|motif|central (ssRNA) RNA: GGGAGUUCUACAGUCCGACGAUCAAAAUCAUCUCCAAAAAAAGUCUUCGUAAUGCAAGGAUGGCGUGAUCCUUUAAGCUCGGAGAAGGGGGGGGUAUCUUCCGGCAACAGAAUUACUGGGCGACACAUAGGACCAUCACCCCCCAACAGAGGAUUGAGCAUCA"
observation_type = "binding signal"
number = 1.58

[[record]]
binder = "chr2:27118074:27118075:-_ENSMUSG00000009621_ENSMUST00000056176|mus_mus|FALSE|FALSE (ssRNA) RNA: GGGAGUUCUACAGUCCGACGAUCCACAGAUAUAUAAUGGGAGACUUAGAUGAAAUAAUUACAACUUCCCCUCCCCCUUCUAAAAUACAAACAGAUAAAACAUAACAGGACAAAAAAAGCUACAACAACAGAAAAACAAACAGACAACAGAGGAUUGAGCAUCA"
observation_type = "binding signal"
number = 4.31

[[record]]
binder = "chr1:235506153:235506154:+_ENSG00000152904_ENST00000391855|hu_mus|FALSE|FALSE (ssRNA) RNA: GGGAGUUCUACAGUCCGACGAUCGAAGACAGCUACACUUACAUAUAAUAAAUAAAUCUUAAAAAAAAAAAAAAGAAAAGAUAAAUGGGAUGAAGCCACUCCUCAUUUUCAACUGAAAGAAGCUACUGAGUCUAAUCCAGAAAGCAACAGAGGAUUGAGCAUCA"
observation_type = "binding signal"
number = 20.8

[[record]]
binder = "chr18:51681570:51681571:-_ENSG00000134046_ENST00000256429|hu_hu|FALSE|FALSE (ssRNA) RNA: GGGAGUUCUACAGUCCGACGAUCGAUAUAUACAUCAAAAAUACAUCUAAAAAGGCAUUGGUUAGUGCUAUUAAAAAGCUCUAUGUGCUCGGGUACAUUUUUUUUCUUACAGGCAAAAGCCAGUGGAAACAUUUUUGUUCAAUUCAACAGAGGAUUGAGCAUCA"
observation_type = "binding signal"
number = 0.982

[[record]]
binder = "chr2:179515052:179515053:+_ENSMUSG00000000305_ENSMUST00000000314|mus_hu|mus_mus_mus_hu_False|28_108 (ssRNA) RNA: GGGAGUUCUACAGUCCGACGAUCGCUUUCCCGCGCAGUCACCGUGAACGCCACCUGCUCGGAGGGGACCUGCAGCUCCCGGGUGGCGAAGACUGUCCCAUCUGCCCCGACUUUGAAGUCCAUGCUGUUGGUCUCAUAUUGUGUCAACAGAGGAUUGAGCAUCA"
observation_type = "binding signal"
number = 0.727

[[record]]
binder = "113942580_113943501_80_5pUTR_ENSG00000119927_ENST00000348367|human|control|control (ssRNA) RNA: GGGAGUUCUACAGUCCGACGAUCAUAAAACUUCAGGACUCAGCUAUCAGUUUCGGGUGCAGAAUGUCCAUACAACAGGGGAGCCGCUGCUGCCCUAGCAGCUCCAGCUUCGGCUGCUGCAGAAGCCCGCACUUCCAGUCCCGGCAACAGAGGAUUGAGCAUCA"
observation_type = "binding signal"
number = 1.22

[[record]]
binder = "chr18:10010020:10010021:-_ENSMUSG00000047879_ENSMUST00000092096|mus_hu|FALSE|FALSE (ssRNA) RNA: GGGAGUUCUACAGUCCGACGAUCCUCGGCAAACUGUGGGAAAGCCAUGUGCAAAAACUGCAGUAGAAUAAUAGGUGGAAUACUGGAAGAAGUUUUAUCCAUGGAAUCAAACAAAUCUCUAAGGGCUGCAGUAAUAUACUGCGCCAACAGAGGAUUGAGCAUCA"
observation_type = "binding signal"
number = 1.59

[[record]]
binder = "chr8:95500983:95500984:-_ENSG00000164944_ENST00000437199|hu_hu|hu_hu_hu_mus_True|78_78 (ssRNA) RNA: GGGAGUUCUACAGUCCGACGAUCAGAACACAUCUAUCGAGUAAAGGACCGUACAUGGACGACCUCUCCACUGCCUCCACUAACAAACUUUCCUCUCGAGCCUCCACUGCCGCUAUUUGUACUAGCCCAGGACGGUCCCAGGCCCAACAGAGGAUUGAGCAUCA"
observation_type = "binding signal"
number = 1.53

[[record]]
binder = "203421096_203421216_3307_3pUTR_ENSG00000204217_ENST00000374580|human|control|control (ssRNA) RNA: GGGAGUUCUACAGUCCGACGAUCAGAUCCAGAGAAUUAGGCCUCUGUGCUCUUCUGGGCUUUGAUGGCCCAGGAUCUGCUGCUGUGCUUGGAACACCCUGUGCAAGAACAUCUUGUUCUGAACAUGGAUUGCUGUUGUUGUUACAACAGAGGAUUGAGCAUCA"
observation_type = "binding signal"
number = 0.924

